Origin of values: paper PMC3758111

assay: Transepithelial transfer across Caco-2 cell monolayers; type: in vitro ADME, human; conditions: human, Caco-2, pH 7.4, Papp from E. sanguinea or E. pallida extracts
METRIC NAME: Papp at 90 min

{"columns": ["COMPOUND", "READING"],
 "data": [
  ["C/C=C\\C#CC/C=C\\CCCCCC(C)=O [Bauer ketone 24, pentadeca-(8Z, 13Z)-diene-11-yn-2-one]", "12 to 17 ×10⁻⁶ cm/s"]
]}

---

assay: Transepithelial transfer across Caco-2 cell monolayers; type: in vitro ADME, human; conditions: human, Caco-2, pH 7.4, Papp, Before, single compound, 10–100 μM; prior to deconjugation with β-glucuronidase; n=9

{"columns": ["COMPOUND", "Papp at 90 min [×10⁻⁶ cm/s]"],
 "data": [
  ["C/C=C\\C=C/CC/C=C/C=C/C(=O)NCC(C)C [Bauer alkamide 8]", 43.8],
  ["CCC/C=C\\CC/C=C/C=C/C(=O)NCC(C)C [Bauer alkamide 10]", 17.7],
  ["CCCCCCC/C=C/C=C/C(=O)NCC(C)C [Bauer alkamide 11, (2E,4E)-N-isobutyldodeca-2,4-dienamide]", 2.8]
]}

---

assay: Transepithelial transfer across Caco-2 cell monolayers; type: in vitro ADME, human; settings: human, Caco-2, pH 7.4, Papp, After, single compound, 10–100 μM; subsequent to deconjugation with β-glucuronidase; n=9
Measured Papp at 90 min by item
METRIC NAME: Papp at 90 min (nm/s)

{"columns": ["COMPOUND", "READING"],
 "data": [
  ["CCC/C=C\\CC/C=C/C=C/C(=O)NCC(C)C [Bauer alkamide 10]", 183],
  ["C/C=C\\C=C/CC/C=C/C=C/C(=O)NCC(C)C [Bauer alkamide 8]", 398]
]}
